- targetEntity: CDK9/Cyclin K (Homo sapiens, UniProt P50750)
- Sequence (P50750 whole entry): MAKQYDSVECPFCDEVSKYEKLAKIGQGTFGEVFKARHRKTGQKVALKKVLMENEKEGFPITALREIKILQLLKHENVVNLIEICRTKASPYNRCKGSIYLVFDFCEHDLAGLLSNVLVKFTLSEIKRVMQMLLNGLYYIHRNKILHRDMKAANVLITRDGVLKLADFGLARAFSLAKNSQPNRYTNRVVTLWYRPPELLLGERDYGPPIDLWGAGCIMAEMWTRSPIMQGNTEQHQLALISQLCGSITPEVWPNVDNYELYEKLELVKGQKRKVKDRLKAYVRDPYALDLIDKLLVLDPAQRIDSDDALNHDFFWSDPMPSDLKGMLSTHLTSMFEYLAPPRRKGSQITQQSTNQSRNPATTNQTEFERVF
- Sequence (O75909 whole entry partner): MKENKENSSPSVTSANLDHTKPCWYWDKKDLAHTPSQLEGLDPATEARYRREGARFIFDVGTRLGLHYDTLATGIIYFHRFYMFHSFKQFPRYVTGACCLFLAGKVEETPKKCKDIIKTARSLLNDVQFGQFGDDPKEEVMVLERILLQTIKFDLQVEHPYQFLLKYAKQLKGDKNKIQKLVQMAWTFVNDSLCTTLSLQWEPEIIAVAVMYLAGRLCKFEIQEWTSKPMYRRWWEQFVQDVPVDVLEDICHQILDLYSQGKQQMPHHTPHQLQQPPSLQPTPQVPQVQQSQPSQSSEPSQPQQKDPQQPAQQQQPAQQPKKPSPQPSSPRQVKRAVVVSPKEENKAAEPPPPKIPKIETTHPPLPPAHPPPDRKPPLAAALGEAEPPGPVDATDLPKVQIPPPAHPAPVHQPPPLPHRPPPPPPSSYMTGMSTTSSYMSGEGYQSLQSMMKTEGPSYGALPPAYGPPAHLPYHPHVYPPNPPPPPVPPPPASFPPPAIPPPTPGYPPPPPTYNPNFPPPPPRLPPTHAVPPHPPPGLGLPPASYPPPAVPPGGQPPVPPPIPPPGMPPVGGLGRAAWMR
- assayName: NanoBRET live-cell target engagement, NanoLuc-CDK9/Cyclin K in HEK-293
- Type: binding
- particulars: CDK9/K; experiment 3
pIC50: −log10 of the molar value.

>  <molecule>
COc1ccc(F)cc1-c1cc(NC(=O)C2CCCNC2)ncc1Cl (stereo not shown)

>  <pIC50>
8.52

$$$$

* * *

- targetEntity: CDK18/Cyclin Y (Homo sapiens, UniProt Q07002)
- Sequence (Q07002 whole entry): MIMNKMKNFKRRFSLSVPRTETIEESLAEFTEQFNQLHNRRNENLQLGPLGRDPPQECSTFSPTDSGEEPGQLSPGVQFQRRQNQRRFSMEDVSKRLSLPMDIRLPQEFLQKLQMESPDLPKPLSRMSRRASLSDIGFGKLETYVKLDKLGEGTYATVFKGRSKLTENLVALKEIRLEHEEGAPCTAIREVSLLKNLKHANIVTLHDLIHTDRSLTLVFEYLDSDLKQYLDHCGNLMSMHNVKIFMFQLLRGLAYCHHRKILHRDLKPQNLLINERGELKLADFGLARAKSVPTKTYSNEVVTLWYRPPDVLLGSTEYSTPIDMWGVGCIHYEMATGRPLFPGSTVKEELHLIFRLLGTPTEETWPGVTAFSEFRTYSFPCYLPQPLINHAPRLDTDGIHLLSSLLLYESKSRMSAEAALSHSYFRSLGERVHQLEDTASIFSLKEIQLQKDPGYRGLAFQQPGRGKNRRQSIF
- Sequence (Q8ND76 whole entry partner): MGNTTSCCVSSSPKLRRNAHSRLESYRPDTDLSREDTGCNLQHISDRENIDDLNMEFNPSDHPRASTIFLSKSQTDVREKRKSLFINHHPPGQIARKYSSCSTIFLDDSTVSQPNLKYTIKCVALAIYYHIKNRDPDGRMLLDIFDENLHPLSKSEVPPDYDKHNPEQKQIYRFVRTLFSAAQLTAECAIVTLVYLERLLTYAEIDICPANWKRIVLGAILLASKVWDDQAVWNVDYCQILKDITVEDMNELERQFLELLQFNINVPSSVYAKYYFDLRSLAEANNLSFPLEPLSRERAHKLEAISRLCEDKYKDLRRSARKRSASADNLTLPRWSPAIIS
- assayName: NanoBRET live-cell target engagement, CDK18-NanoLuc/Cyclin Y in HEK-293
- Format: binding
- particulars: CDK18/Y; average (± SEM where n=3); read-out: IC50
pIC50: −log10 of the molar value.

>  <compound>
CC(C)c1cnn2c(NCc3ccccc3-n3cccn3)nc(OC3CCCNC3)nc12 (stereo not drawn) [LDC4297]

>  <pIC50>
6.64

$$$$
>  <compound>
CN1CCN(Cc2ccc(NC(=O)Nc3ccc(Oc4ccnc(N)n4)cc3)cc2C(F)(F)F)CC1 [K03861]

>  <pIC50>
6.40

$$$$
>  <compound>
CN1CCN(c2ccc(Nc3ncc4cc(C#N)c(=O)n(C5CCCC5)c4n3)cc2)CC1 [ON123300]

>  <pIC50>
6.62

$$$$
>  <compound>
CC(C)c1c2cc(-c3ccnc(N[C@H]4CC[C@H](NC5CCOCC5)CC4)n3)ccc2nn1C [LY2857785]

>  <pIC50>
6.54

$$$$
>  <compound>
COc1ccc(F)cc1-c1cc(NC(=O)C2CCCNC2)ncc1Cl (stereo not drawn) [CDK inhibitor 2]

>  <pIC50>
6.85

$$$$
>  <compound>
CS(=O)(=O)N1CCC(NC(=O)c2[nH]ncc2NC(=O)c2c(Cl)cccc2Cl)CC1 [NVP-LCQ195]

>  <pIC50>
6.62

$$$$

* * *

- targetEntity: CDK18/Cyclin Y (Homo sapiens, UniProt Q07002)
- assayName: NanoBRET live-cell target engagement, CDK18-NanoLuc/Cyclin Y in HEK-293
- Type: binding
- particulars: independent experiment 1; read-out: CDK18/Y IC50
pIC50: −log10 of the molar value.
# Lookup of reported pIC50 keyed by entry

>  <molecule>
CN1C/C=C/CCOc2cccc(c2)-c2ccnc(n2)Nc2cccc(c2)C1 [SB1317]

>  <pIC50>
7.00

$$$$
>  <molecule>
COCCN1CCN(Cc2ccc(-c3n[nH]c4c3C(=O)c3c(NC(=O)NN5CCOCC5)cccc3-4)cc2)CC1 [RGB286638]

>  <pIC50>
8.07

$$$$

* * *

- targetEntity: CDK17/Cyclin Y (Homo sapiens, UniProt Q00537)
- Sequence (Q00537 whole entry): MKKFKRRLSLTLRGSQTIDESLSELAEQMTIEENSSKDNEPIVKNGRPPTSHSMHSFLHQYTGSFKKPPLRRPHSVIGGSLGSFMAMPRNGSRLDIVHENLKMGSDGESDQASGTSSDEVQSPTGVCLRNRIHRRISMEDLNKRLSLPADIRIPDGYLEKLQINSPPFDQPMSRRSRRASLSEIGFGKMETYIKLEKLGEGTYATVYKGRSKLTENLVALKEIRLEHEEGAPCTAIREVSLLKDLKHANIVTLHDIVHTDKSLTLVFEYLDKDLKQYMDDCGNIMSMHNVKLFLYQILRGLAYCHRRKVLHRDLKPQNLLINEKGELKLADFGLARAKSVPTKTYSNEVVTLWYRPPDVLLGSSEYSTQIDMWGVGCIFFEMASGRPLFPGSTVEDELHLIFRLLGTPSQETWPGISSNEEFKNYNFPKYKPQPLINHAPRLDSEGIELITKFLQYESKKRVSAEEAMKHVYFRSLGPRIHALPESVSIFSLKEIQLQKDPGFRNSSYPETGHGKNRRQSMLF
- Sequence (Q8ND76 whole entry partner): as the sequence (Q8ND76 whole entry partner) above
- assayName: NanoBRET live-cell target engagement, CDK17-NanoLuc/Cyclin Y in HEK-293
- Assay type: binding
- particulars: CDK17/Y; 10µM; read-out: Inhibition at 10µM (%) Replicate 1
Mark fulfilled for reported inhibition at 10 µM of 70% or greater; mark not fulfilled for anything smaller.

>  <molecule>
CCN1CCN(Cc2ccc(Nc3ncc(F)c(-c4cc(F)c5nc(C)n(C(C)C)c5c4)n3)nc2)CC1

>  <qualitativeLabel>
fulfilled

$$$$
>  <molecule>
COc1cc(F)ccc1-c1ncnc(Nc2cccc(C[S@](C)(=N)=O)c2)n1

>  <qualitativeLabel>
not fulfilled

$$$$
>  <molecule>
COc1cc(F)ccc1-c1cc(Nc2cc(CS(C)(=N)=O)ccn2)ncc1F (centres unmarked)

>  <qualitativeLabel>
not fulfilled

$$$$
>  <molecule>
Cc1ncc(-c2ccnc(Nc3ccc(S(C)(=O)=O)cc3)n2)n1C(C)C

>  <qualitativeLabel>
fulfilled

$$$$
